# System: mevalonate kinase [Streptococcus pneumoniae D39]
# TEST SUMMARY: pneumococcal mevalonate kinase activity blockers – biochemical, PK/LDH-coupled NADH absorbance, primary screen (AID 555)
# MEASUREMENT PARAMETERS: purified MK, PK/LDH-coupled NADH absorbance 340 nm; at 10 µM
Screen size: about 65,000 compounds; about 320 (0.49%) were called active.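 The calls were made as follows: active = ranked among the strongest by inhibition in the single 10 µM screen, a fixed top-ranked set picked for dose follow-up; inactive = the rest, inconclusive results apart.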 The full list was thinned out, with actives kept by preference.
Permitted responses: Yes for active, No for inactive

Worked cases, answers included:
INSERT INTO results (molecule_smiles, tested_target, group) VALUES
  ('CCOC(=O)N1CCC(NC(=O)Cc2cn(C)c3ccccc23)CC1', 'mevalonate kinase [Streptococcus pneumoniae D39]', 'No'),
  ('CCCCc1nccn1CCn1ccnc1CCCC', 'mevalonate kinase [Streptococcus pneumoniae D39]', 'No'),
  ('Cc1ccc(S(=O)(=O)N2CCC(N3CCCCCC3)CC2)cc1', 'mevalonate kinase [Streptococcus pneumoniae D39]', 'Yes'),
  ('O=C(CNS(=O)(=O)c1ccc(Br)s1)NCc1ccc2c(c1)OCO2', 'mevalonate kinase [Streptococcus pneumoniae D39]', 'No');

Turning now to a further record.
Query :: Dear colleague, could you share the recorded outcome for Cc1ccc2cccc(S(=O)(=O)N3CCN(c4ccccc4F)CC3)c2n1 when you have a moment?
Result :: No
